experiment-description: Mouse pharmacokinetics in retina after intraocular injection (LC-MS/MS)
Assay type: in vivo
particulars: C57BL/6, mouse, topical or ocular; 70 ng eyeball; retina

molecule	Tmax / h
Brc1ccc2c(-c3csc(-c4c[nH]c5c(Br)cccc45)n3)c[nH]c2c1 [32-134D]	24

----------
experiment-description: Mouse pharmacokinetics in retina after intraocular injection (LC-MS/MS)
Format: in vivo
particulars: C57BL/6, mouse, topical or ocular; 280 ng eyeball; retina
observed-property: Tmax (h)

molecule	unit-symbol	numeric-readout
Brc1ccc2c(-c3csc(-c4c[nH]c5c(Br)cccc45)n3)c[nH]c2c1 [32-134D]	h	24

----------
experiment-description: Mouse pharmacokinetics in retina after intraocular injection (LC-MS/MS)
Type: in vivo
particulars: C57BL/6, mouse, retina, topical or ocular, 280 ng, 280 ng eyeball; retina; read-out: T1/2 (converted)

compound	unit-symbol	half-life
Brc1ccc2c(-c3csc(-c4c[nH]c5c(Br)cccc45)n3)c[nH]c2c1 [32-134D]	h	42.2
